Tested on: RPMI-8226
Assay: Combination study, ATPLite 72 h, dose matrix (Synergy Score, CI50)
Settings: combination with Compound 1
Measure: CI50 inhibition

{"Molecule": "CO[C@H]1C[C@@H]2CC[C@@H](C)[C@@](O)(O2)C(=O)C(=O)N2CCCC[C@H]2C(=O)O[C@H]([C@H](C)C[C@@H]2CC[C@@H](OCCO)[C@H](OC)C2)CC(=O)[C@H](C)/C=C(\\C)[C@@H](O)[C@@H](OC)C(=O)[C@H](C)C[C@H](C)/C=C/C=C/C=C/1C [everolimus]", "Measure": "CI50 inhibition", "Measured": "W (W=≥1)"}
{"Molecule": "CC(C)C[C@H](NC(=O)[C@H](CCc1ccccc1)NC(=O)CN1CCOCC1)C(=O)N[C@@H](Cc1ccccc1)C(=O)N[C@@H](CC(C)C)C(=O)[C@@]1(C)CO1 [carfilzomib]", "Measure": "CI50 inhibition", "Measured": "W (W=≥1)"}
{"Molecule": "CCCCCCCCCCCCCCCCCCOP(=O)([O-])OC1CC[N+](C)(C)CC1 [perifosine]", "Measure": "CI50 inhibition", "Measured": "U (U=0.7 to <1)"}
{"Molecule": "CC(C)C[C@H](NC(=O)[C@H](Cc1ccccc1)NC(=O)c1cnccn1)B(O)O [bortezomib]", "Measure": "CI50 inhibition", "Measured": "U (U=0.7 to <1)"}
{"Molecule": "Nc1ncn([C@@H]2O[C@H](CO)[C@@H](O)[C@H]2O)c(=O)n1 [Azacitidine]", "Measure": "CI50 inhibition", "Measured": "W (W=≥1)"}
{"Molecule": "CN1CCc2c(c3ccccc3n2Cc2ccc(C(=O)NO)cc2)C1.Cl [Tubastatin A hydrochloride]", "Measure": "CI50 inhibition", "Measured": "U (U=0.7 to <1)"}
